Listing of recorded pest or weed control at 200 ppm by entry.
Test system: Phaeosphaeria nodorum (Setoria nodorum)
methodDescription: Phaeosphaeria nodorum (Septoria nodorum) / wheat / leaf disc preventative (glume blotch)
Assay type: in vivo
testSettings: Parastagonospora nodorum, foliar, 200 ppm in the formulation, wheat leaf segments cv. Kanzler, 5-7 days after application, vs untreated control, read-out: disease control
readoutKind: pest or weed control at 200 ppm

- COc1ccnc(C(=O)N[C@@H](C)C(=O)OC(C)C(C)n2ccc3c(F)ccc(Br)c32)c1O (stereo partly drawn) [I.bd.001]: ≥ 80%
- COc1ccnc(C(=O)N[C@@H](C)C(=O)OC(C)C(C)n2ccc3c(Br)ccc(F)c32)c1OC(C)=O (stereo partly drawn) [I.ab.041]: ≥ 80%
- COc1ccnc(C(=O)N[C@@H](C)C(=O)OC(C)C(C)n2ccc3ccc(C(F)(F)F)cc32)c1O (stereo partly drawn) [I.z.001]: ≥ 80%
- COc1ccnc(C(=O)N[C@@H](C)C(=O)OC(C)C(C)n2ccc3cccc(Br)c32)c1O (stereo partly drawn) [I.ba.001]: ≥ 80%
- COc1ccnc(C(=O)N[C@@H](C)C(=O)OC(C)C(C)c2sc3ccc(Cl)cc3c2C)c1O (stereo partly drawn) [I.at.001]: ≥ 80%
- COc1ccnc(C(=O)N[C@@H](C)C(=O)OC(C)C(C)c2ncc(Cl)cc2Cl)c1O (stereo partly drawn) [I.an.001]: ≥ 80%
- COc1ccnc(C(=O)N[C@@H](C)C(=O)OC(C)C(C)n2ccc3c(Cl)ccc(Cl)c32)c1OC(C)=O (stereo partly drawn) [I.bb.041]: ≥ 80%
- COc1ccnc(C(=O)N[C@@H](C)C(=O)OC(C)C(C)n2ccc3cc(F)cc(F)c32)c1O (stereo partly drawn) [I.ay.001]: ≥ 80%
- COc1ccnc(C(=O)N[C@@H](C)C(=O)OC(C)C(C)n2ccc3c(F)ccc(Br)c32)c1OC(C)=O (stereo partly drawn) [I.bd.041]: ≥ 80%
